ASSAY_REMARKS: yeast display, Sf9 membrane polyspecificity reagent, FACS + sequencing; frameworks hold sequencing errors
MEASUREMENT_LABEL: polyreactivity (PSR sort gate)

CONSTRUCT_SEQUENCE	REPORTED
QVQLVESGGGLVQAGGSLRLSCAASGSTFYLNAMGWYRQAPGKERELVAVITRSGGNTYYADSVKGRFTISRDNAKNTVYLQMNSLKPEDTAVYYCNKRPTGGKYEYWGQGTQVTVSS	high polyreactivity
QVQLVESGGGLVHAGGSLRLSCAASGRTFTLYAMGWYRQAPGKERELVAAITRTGRTTYADSVKGRFTISRDNAKNTVYLQMNSLKPEDTAVYYCAAEVEYTSASIVYYEYEYWGQGTQVTVSS	high polyreactivity
QVQLVESGGGLVQAGGSLRLSCAASGRIFDGNAMGWYRQAPGKERELVAAISSRGARTYYADSVKGRFTISRDNAKNTVYLQMNSLKPEDTAVYYCNKDLDSLSGAEYDYWGQGTQVTVSS	high polyreactivity

====

ASSAY_REMARKS: yeast display, Sf9 membrane polyspecificity reagent, FACS + sequencing; frameworks hold sequencing errors

CONSTRUCT_SEQUENCE	polyreactivity (PSR sort gate)
QVQLVESGGGLVQAGGSLRISCAAYGSTFGPYAMGWYRQAPGKERELVAAITWNGGSTYYADSVKGRFTISRDNAKNTVYLQMTSLKPEDTAVYYCAAKAYGRKGTYRVNYWGQGTQVTVSS	high polyreactivity
QVQLVESGGGLVQAGGSLRLSCGASGYIFDRYPMGWYRQAPGKEREVVASISRRGGSTYYADSVKGRFTISRDNAKNTVYLQMNSLKPEATAVYYCAAKWPFRRSAVVRYDYWGQGTQVTVSS	high polyreactivity
QVQLVESGGGLVQAGGSLRLSCAASGSIFFPYAMGWYRQAPGKERELVAAISYSGTSRYYADSVKGRFTISRDNAKNTVYLQMNSLKPEDTAVYYCAAYSRYYASYDYWGQGTQVTVSS	high polyreactivity

====

ASSAY_REMARKS: yeast display, Sf9 membrane polyspecificity reagent, FACS + sequencing; frameworks hold sequencing errors

CONSTRUCT_SEQUENCE	polyreactivity (PSR sort gate)
QVQLVESGGGLVQAGGSLRLSCAPSGSIFERYAMGWYRHAPGKERELVAAISWRGGSTYYADSVKGRFTISRDNAKNTVYLQMNSLIQEDTAVYYCAADSRTCYYYWGQGTQVTVST	high polyreactivity
QVQLVESGGGLVQAGGSLSLSCAASGIIFVDYAMGWYRQAPGKERELVAVIRSAGSTYYADSVKGRFTISRDNAKNTVYLQMNSLKPEDTAVYYCNARARGARRYYYWGQGTQVTVSS	high polyreactivity
QVQLVESGGGLVQAGGSLRLSCAASGSTFESYDMGWYRPAPGKERELVAAIDWSGGITYYADSVKGRFTISRDNAKNTVYLQMNSLKPEDTAVYYCNADWFVRYPKRVYWSEYDYWGHGTQVTVSS	low polyreactivity
QVQLVESGGGLVQEGGSLRLSCAASGFISGFYGMGWYRQAPRKEREFVAAIEFIDGDTYYADSVKGRFTISRDNAKNTVYLQMNSLKPEDTAVYYCAADGSFWQFDYWGQGTQVTVSS	low polyreactivity
QVQLVESGGGLVQAGGSLRLSCAASGFTLYGYAMGWYRQAPGKERELVAGIRYSGGRTYYADSVKGRFTISRDNAKNTVYLQMNSLKPEDTAVYYCAADGGYWRGTGYEYWGQGTQVTVSS	high polyreactivity

====

ASSAY_REMARKS: yeast display, Sf9 membrane polyspecificity reagent, FACS + sequencing; frameworks hold sequencing errors
MEASUREMENT_LABEL: polyreactivity (PSR sort gate)

> print(dat)
                         construct.sequence             reported
1  QVQLVESGGGLVQAGGSLRLSCAASGRIFYRYARGWYRQAPGKERELVAAITSGTSTNYADSVKGRFTFSRDNAKNTVYLQMNSLKPEDTAVYYCAKRYYCKYAEYDYWGQGTQVTVSS  high polyreactivity
2  QVQLVESGGGLVQAGGSLRLSCAASGRIYTYYTMGWYRQAPGKERELVAAITVRGGRTYYADSVKGRFTISRDNAKNTVYLQMNSLKPEDTAVYYCAARGLVRSYDYWGQVTQVTVSS  high polyreactivity
3  QVQLVESGGGLVQAGGSLRLSCAASGSILDHYAMGRYRQAPGKEREFVAAISIRGGSTYYADSVKGRFTISRDNEKNTVYLHMNSLKPEDTAVYYCNALSNYVYRRNDYGGQGTQVTVSS   low polyreactivity
4  QVQLPESGGGLLQAGGGLRLSCAASGSITSTGYMGWYRPAPGKEREPVAAIAAGTTTYYADSVKARFTISRDNAKNTVYLQMNCLRPEDTAVYYCAVFTDNRLAFLYWGQGTQVTVSS   low polyreactivity
5  QVQLVESGGGLVQAGGSLRLSCAASGSIFYRYVMGWYRQAPGKERELVAAITSTGSTYYADSVKGRFTISRDNAKNTVYLQMNSLKPEDTAVYYCNTLYARPLRDSYGYWGQGTQVTVSS  high polyreactivity

====

ASSAY_REMARKS: yeast display, Sf9 membrane polyspecificity reagent, FACS + sequencing; frameworks hold sequencing errors
MEASUREMENT_LABEL: polyreactivity (PSR sort gate)

CONSTRUCT_SEQUENCE	MEASUREMENT_LABEL	REPORTED
QFQLVESGGGLVQAGGSLRLSCAASGLTFKYYGMGWYRQAPGKERELVATISSGGRTNYADSVKGRFTISRDNAKNTVYLQMNSLKPEDTEVYYCNRPRWYGGSPYYYWGQGTQVTVSS	polyreactivity (PSR sort gate)	high polyreactivity
QVQLEESGGGLVQAGGSLRLSCAASGSTFYPNAMGWYRQAPGKERELVAAISQRGGRKYYADSVKGRFTISRDNAKNTVYLQMNSLKPEDTAVYYCAATYQGYNSWYSFGYWGQGTQVTVSS	polyreactivity (PSR sort gate)	high polyreactivity
QVQLVESGGGLVQAGGSLRLSCAASGRIFYAYTIGWYRQAPGKERELVAAISGSGSTYYADSVKGRFTISRDNAKNTVYLQMNSLKPVDTAVYYCAADVTGGRKYDYWGQGTQVSVSS	polyreactivity (PSR sort gate)	low polyreactivity
QVQLVESGGGLVQAGGSLRLSCAASGRTFVTYAMGWYRQAPGKERELVATINYSGGSTNYADSVKGRFTISRDNAKNTVYLQMNSLKPEDTAVYYCNTVPRQHRPGDYWGQGTQVTVSS	polyreactivity (PSR sort gate)	low polyreactivity
QVQLVESGGGLVQSGGSLRLSCAASGYIFGYYAMGWYRQAPGKERELVAAITGTDDTYYADSVKGRFTISRDNAKNTVYLQMNSLKPEDTAVYYCAAYSWWNEYDYWGQGTQVTVSS	polyreactivity (PSR sort gate)	high polyreactivity
QVQLVESGGGLVQAGGSLRLSCAASGSTILRYAMGWYRQAPGKERELVATISRSDDGTYYADYVKGRFTISRDNAKNTVYLQMNSLKPEDTAVYYCGARSWYLYYYWGLGTQVTVSS	polyreactivity (PSR sort gate)	low polyreactivity
QVQLVESGGGLVQAGGSLRLSCAASGSILGHYAMGWYRQAPGTERELVAAISRGGSTTYYADSVKGRFTISRDNAKNTVYFQMNSLKPEDTAVYYCAARSASKMDYWGQGTQVNVSS	polyreactivity (PSR sort gate)	high polyreactivity
QVQLVESGGGLVQAGGSLRLSFAASGRNFYRYAMGWYRQAPGKERELVAAISRGGRTNYADSVKGRFTISRDNAKNTGYLQMNSLKPEDTAVYYCAVTNFGALYDYWGQGTQVTVSS	polyreactivity (PSR sort gate)	high polyreactivity
QVQLVESGGGLVQAVGRLRLSCAASGSNFQYYAMGWYRQAPGKERELVAAISSSGTGTSYADSVKGRFTISRDNAKNTVYLQMNSLKPEDTGVYYCAADYRDYPDSAYYYWGQGTQVTVSS	polyreactivity (PSR sort gate)	low polyreactivity
QVQLVEAGGGLVQAGGSLRLSCAASGRIIIYNAMGWYRQPPGKERELVAAISSTGGSTNYADSVKGRFTISRDNAMNSVYLQMNSLKPEDTAVYYCNALPGRASLRYNYWGQGTQVTVSS	polyreactivity (PSR sort gate)	high polyreactivity
QVQLVESGGGLVQAGGSLRLSCAASGSIFRFNVMGWYRQAPGKERELVAAITRGDSTNYADSVKGRFTISRDNAKNTVYLQMNSLKPEDTAVYYCAAGYYYYLRDHDYWGQGTQVTVSS	polyreactivity (PSR sort gate)	low polyreactivity

====

ASSAY_REMARKS: yeast display, Sf9 membrane polyspecificity reagent, FACS + sequencing; frameworks hold sequencing errors

CONSTRUCT_SEQUENCE	polyreactivity (PSR sort gate)
QVQLVESGGGLVQAGGSLRLSCAASGSIFWYYAMGWYRQAPGKERELVAAISSGGSTNYADSVKGRFTISRDNAKNTVYLQMNSLKPEDTAVYYCAAGYAVSWYSAYDSGYWGQCTQVTVSS	low polyreactivity
QVQLVESGGGLVQAGGSLRLSCAASGRTIFRYAMGWYTQAPGKERDLVAAITWSGGTTYYADSVKGRFTISRDNAKNTVYLQMNSLKPEDTAVYYCNARGLWYRRVVTYGYWGQGTQVTVSS	high polyreactivity
QVQLVESGGGLVQAGGSLRLSCAASGRIFYSYAMGWYRQAPGKEREFVAAISYSGGSTYYADSVKGRFTISRDNAKNTVFLQMNSLKPEDTAVYYCAAKVKFYTYYYWGQGTQVTVSS	high polyreactivity
QVQLVESGGGLVQAGGSLRLSSAASGLTFQEYAMGWYRQAPGKERELVAAISWSGGSTYYADSVKGRFTISRDNAKNTVYLQMNSLKPEDTAVYYCAAEAYEEYITGWYAYDYWGQGTQVTVSS	high polyreactivity
QVQLVESGGGLVQAGGSLRLSCAASGFTYDNYAMGWYRQAPGKERELVAAIRRSGSRTYYPDSVKGRFTISRDNAKNTVYLQMNSLKPEDTAVYYCAAVWYRLYGYCGQGTQVTVSS	low polyreactivity
QVQLVESGGGLVQAGGSLRLSCAASGFTFRYYAMGWYRQAPGKERELVAAITSRGGNTYYADSVKGRFTISRDNAKNTVYLQMNSLKPEDTAVYYCAARYSTTMDYWGQGTQVTVSS	high polyreactivity
QVQLVESGGGLVQAGGSLRLSCAASGRISQNAMGWYRQAPGKERELVAAITFSGGSTYYADSVKGRFTISRDNAKNTVYFQMNSLKPEDTAVYYCNADWPAQWHYYDSKQDDYWGQGTQVTVSS	low polyreactivity
QVQLVESGGGLVQAGGRLRLSCAPSGGIFNPNVMGGYRQSPGKETELVASITGRGGNTYYADSVKGRFTISRDNAKNTVYLQMNSLKPEDTAVYYCAAAIPHHSRVYYWGQGPQVTVSS	low polyreactivity
QVQLVESGGGLVQAGGSLRLSCAASGRTFSYNAMGWYRQAPGKERELVAAISWSDGSTYYADSVKGRFTISRDNAKNTVYLQMNSLKPEDTAVYYCAVESFYRHASLYDNWGQGTQVTVSS	high polyreactivity
QDQLVESGGALVQAGGSLLLSCAASGITFGDHAMGWYRQAPGKEWELFAAISWSGDRTFYADSVTGRFTISRDNAKNTVSLQMNSLNPADTAVYYCNAEIGWHNEGRLSTYDYWGQGTQVTVSS	low polyreactivity
QVQLVESGGGLVQAGGSLRLSCAASGSTLGSNARGWYRQAPGKERALVAAITWSGGTTYYADSVKGRFTISRDNAKNPVYLQMNSLKPEDTAVYYCATGQSVIYRYDYWGQGTQVTVSS	low polyreactivity
